Tested on: NCI/ADR-RES
Test: panel of 60 human tumor cell lines, growth inhibition (Ovarian Cancer)
Details: Log10 Concentration −5.0
Each entry below carries its recorded Percent Growth.
Measure name: Percent Growth (%)

| Line notation | Value |
| --- | --- |
| C=C1C(=O)O[C@H]2[C@H]1CC/C(COC(=O)CCC(=O)NCc1ccc(Cl)nc1)=C\CC[C@@]1(C)O[C@@H]21 | 93 |
| C=C1C(=O)O[C@H]2[C@H]1CC/C(COC(=O)N1CCN(C)CC1)=C\CC[C@@]1(C)O[C@@H]21 | 82 |
| C=C1C(=O)O[C@H]2[C@H]1CC/C(COC(=O)CCC(=O)N1CCC(C)CC1)=C\CC[C@@]1(C)O[C@@H]21 | 64 |
| C=C1C(=O)O[C@H]2[C@H]1CC/C(COC(=O)N1CCC(F)(F)CC1)=C\CC[C@@]1(C)O[C@@H]21 | 30 |
| C=C1C(=O)O[C@H]2[C@H]1CC/C(COC(=O)NCCc1ccccn1)=C\CC[C@@]1(C)O[C@@H]21 | 85 |

###

Test system: HL-60(TB)
Settings: Log10 Concentration −5.0
Measure name: Percent Growth (%)

| Compound | Value |
| --- | --- |
| C=C1C(=O)O[C@H]2[C@H]1CC/C(COC(=S)n1ccnc1)=C\CC[C@@]1(C)O[C@@H]21 [JVM 66] | 16 |
| C=C1C(=O)O[C@H]2[C@H]1CC/C(COC(=O)CCC(=O)N1CCC(C)CC1)=C\CC[C@@]1(C)O[C@@H]21 [JVM 2-70] | −12 |
| C=C1C(=O)O[C@H]2[C@H]1CC/C(COC(=O)N1CCC(F)(F)CC1)=C\CC[C@@]1(C)O[C@@H]21 [JVM 2-66] | −13 |
| C=C1C(=O)O[C@H]2[C@H]1CC/C(COC(=O)NCCN1CCCCC1)=C\CC[C@@]1(C)O[C@@H]21 [JVM 2-13] | 2 |
| C=C1C(=O)O[C@H]2[C@H]1CC/C(COC(=O)NCCN1CCOCC1)=C\CC[C@@]1(C)O[C@@H]21 [JVM 57] | 14 |

###

Test system: SF-539
Assay: panel of 60 human tumor cell lines, growth inhibition (CNS Cancer)
Conditions: SF-539; Log10 Concentration −5.0
Each entry below carries its recorded Percent Growth.

| Molecule | Assay system | Percent Growth / % |
| --- | --- | --- |
| C=C1C(=O)O[C@H]2[C@H]1CC/C(COC(=O)NC)=C\CC[C@@]1(C)O[C@@H]21 [JVM 2-57] | SF-539 | 22 |
| C=C1C(=O)O[C@H]2[C@H]1CC/C(COC(=O)N1CCN(C)CC1)=C\CC[C@@]1(C)O[C@@H]21 [JVM 2-44] | SF-539 | 34 |
| C=C1C(=O)O[C@H]2[C@H]1CC/C(COC(=O)N1CCC(F)(F)CC1)=C\CC[C@@]1(C)O[C@@H]21 [JVM 2-66] | SF-539 | −46 |
| C=C1C(=O)O[C@H]2[C@H]1CC/C(COC(=O)NCCc1ccccn1)=C\CC[C@@]1(C)O[C@@H]21 [JVM 61] | SF-539 | 36 |

###

Each entry below carries its recorded Percent Growth.
Tested on: LOX IMVI
Assay: panel of 60 human tumor cell lines, growth inhibition (Melanoma)
Conditions: Log10 Concentration −6.0

| Line notation | Result units | Percent Growth |
| --- | --- | --- |
| C=C1C(=O)O[C@H]2[C@H]1CC/C(COC(=O)CCC(=O)N1CCC(C)CC1)=C\CC[C@@]1(C)O[C@@H]21 | % | 91 |
| C=C1C(=O)O[C@H]2[C@H]1CC/C(COC(=O)CCC(=O)NCc1ccc(Cl)nc1)=C\CC[C@@]1(C)O[C@@H]21 | % | 103 |
| C=C1C(=O)O[C@H]2[C@H]1CC/C(COC(=O)N1CCN(C)CC1)=C\CC[C@@]1(C)O[C@@H]21 | % | 96 |
| C=C1C(=O)O[C@H]2[C@H]1CC/C(COC(=O)NC)=C\CC[C@@]1(C)O[C@@H]21 | % | 92 |
| C=C1C(=O)O[C@H]2[C@H]1CC/C(COC(=O)NCCO)=C\CC[C@@]1(C)O[C@@H]21 | % | 98 |

###

Each entry below carries its recorded Percent Growth.
System: LOX IMVI
Experiment: panel of 60 human tumor cell lines, growth inhibition (Melanoma)
Details: Log10 Concentration −7.0

| Molecule | Result units | Percent Growth |
| --- | --- | --- |
| C=C1C(=O)O[C@H]2[C@H]1CC/C(COC(=O)NCCN1CCCCC1)=C\CC[C@@]1(C)O[C@@H]21 [JVM 2-13] | % | 99 |
| C=C1C(=O)O[C@H]2[C@H]1CC/C(COC(=O)NCCc1ccccn1)=C\CC[C@@]1(C)O[C@@H]21 [JVM 61] | % | 102 |
| C=C1C(=O)O[C@H]2[C@H]1CC/C(COC(=O)CCC(=O)NCc1ccc(Cl)nc1)=C\CC[C@@]1(C)O[C@@H]21 [JVM 96] | % | 98 |
| C=C1C(=O)O[C@H]2[C@H]1CC/C(COC(=O)N1CCN(C)CC1)=C\CC[C@@]1(C)O[C@@H]21 [JVM 2-44] | % | 94 |

###

Tested on: HCC-2998
Test: panel of 60 human tumor cell lines, growth inhibition (Colon Cancer)
Settings: HCC-2998; Log10 Concentration −5.0

| Line notation | Percent Growth [%] |
| --- | --- |
| C=C1C(=O)O[C@H]2[C@H]1CC/C(COC(=O)CCC(=O)N1CCC(C)CC1)=C\CC[C@@]1(C)O[C@@H]21 | 59 |
| C=C1C(=O)O[C@H]2[C@H]1CC/C(COC(=O)CCC(=O)NCc1ccc(Cl)nc1)=C\CC[C@@]1(C)O[C@@H]21 | 76 |
| C=C1C(=O)O[C@H]2[C@H]1CC/C(COC(=O)NC)=C\CC[C@@]1(C)O[C@@H]21 | 65 |
| C=C1C(=O)O[C@H]2[C@H]1CC/C(COC(=O)N1CCN(C)CC1)=C\CC[C@@]1(C)O[C@@H]21 | 90 |
| C=C1C(=O)O[C@H]2[C@H]1CC/C(COC(=O)NCCN1CCCCC1)=C\CC[C@@]1(C)O[C@@H]21 | 96 |

###

System: DU-145
Experiment: panel of 60 human tumor cell lines, growth inhibition (Prostate Cancer)
Details: DU-145; Log10 Concentration −6.0

| Line notation | Percent Growth |
| --- | --- |
| C=C1C(=O)O[C@H]2[C@H]1CC/C(COC(=O)NCCN1CCCCC1)=C\CC[C@@]1(C)O[C@@H]21 | 101% |
| C=C1C(=O)O[C@H]2[C@H]1CC/C(COC(=O)NC)=C\CC[C@@]1(C)O[C@@H]21 | 93% |
| C=C1C(=O)O[C@H]2[C@H]1CC/C(COC(=O)CCC(=O)N1CCC(C)CC1)=C\CC[C@@]1(C)O[C@@H]21 | 95% |
| C=C1C(=O)O[C@H]2[C@H]1CC/C(COC(=O)N1CCC(F)(F)CC1)=C\CC[C@@]1(C)O[C@@H]21 | 86% |

###

Each entry below carries its recorded Percent Growth.
Test system: LOX IMVI
Assay: panel of 60 human tumor cell lines, growth inhibition (Melanoma)
Settings: Log10 Concentration −5.0
Measure name: Percent Growth (%)

| Line notation | Assay system | Measure name | Value |
| --- | --- | --- | --- |
| C=C1C(=O)O[C@H]2[C@H]1CC/C(COC(=O)N1CCN(C)CC1)=C\CC[C@@]1(C)O[C@@H]21 | LOX IMVI | Percent Growth | 64 |
| C=C1C(=O)O[C@H]2[C@H]1CC/C(COC(=O)NCCN1CCCCC1)=C\CC[C@@]1(C)O[C@@H]21 | LOX IMVI | Percent Growth | 51 |
| C=C1C(=O)O[C@H]2[C@H]1CC/C(COC(=O)CCC(=O)NCc1ccc(Cl)nc1)=C\CC[C@@]1(C)O[C@@H]21 | LOX IMVI | Percent Growth | 25 |
| C=C1C(=O)O[C@H]2[C@H]1CC/C(COC(=O)N1CCC(F)(F)CC1)=C\CC[C@@]1(C)O[C@@H]21 | LOX IMVI | Percent Growth | −29 |
| C=C1C(=O)O[C@H]2[C@H]1CC/C(COC(=O)NCCO)=C\CC[C@@]1(C)O[C@@H]21 | LOX IMVI | Percent Growth | 67 |
| C=C1C(=O)O[C@H]2[C@H]1CC/C(COC(=O)NC)=C\CC[C@@]1(C)O[C@@H]21 | LOX IMVI | Percent Growth | 21 |

###

Values of CC50 reported for IGROV1 appear below.

| Compound | CC50 |
| --- | --- |
| C=C1C(=O)O[C@H]2[C@H]1CC/C(COC(=O)CCC(=O)N1CCC(C)CC1)=C\CC[C@@]1(C)O[C@@H]21 [JVM 2-70] | 94 µM |
| C=C1C(=O)O[C@H]2[C@H]1CC/C(COC(=O)N1CCN(C)CC1)=C\CC[C@@]1(C)O[C@@H]21 [JVM 2-44] | 76 µM |
| C=C1C(=O)O[C@H]2[C@H]1CC/C(COC(=O)N1CCC(F)(F)CC1)=C\CC[C@@]1(C)O[C@@H]21 [JVM 2-66] | 59.7 µM |
| C=C1C(=O)O[C@H]2[C@H]1CC/C(COC(=O)NCCN1CCCCC1)=C\CC[C@@]1(C)O[C@@H]21 [JVM 2-13] | 81.2 µM |
| C=C1C(=O)O[C@H]2[C@H]1CC/C(COC(=O)NC)=C\CC[C@@]1(C)O[C@@H]21 [JVM 2-57] | 77 µM |
| C=C1C(=O)O[C@H]2[C@H]1CC/C(COC(=O)NCCO)=C\CC[C@@]1(C)O[C@@H]21 [JVM 2-50] | > 100 µM |
